# Percent Effect values compiled below
Molecular target: Tyrosyl-tRNA synthetase, putative (Trypanosoma cruzi (strain CL Brener))
Sequence (whole entry): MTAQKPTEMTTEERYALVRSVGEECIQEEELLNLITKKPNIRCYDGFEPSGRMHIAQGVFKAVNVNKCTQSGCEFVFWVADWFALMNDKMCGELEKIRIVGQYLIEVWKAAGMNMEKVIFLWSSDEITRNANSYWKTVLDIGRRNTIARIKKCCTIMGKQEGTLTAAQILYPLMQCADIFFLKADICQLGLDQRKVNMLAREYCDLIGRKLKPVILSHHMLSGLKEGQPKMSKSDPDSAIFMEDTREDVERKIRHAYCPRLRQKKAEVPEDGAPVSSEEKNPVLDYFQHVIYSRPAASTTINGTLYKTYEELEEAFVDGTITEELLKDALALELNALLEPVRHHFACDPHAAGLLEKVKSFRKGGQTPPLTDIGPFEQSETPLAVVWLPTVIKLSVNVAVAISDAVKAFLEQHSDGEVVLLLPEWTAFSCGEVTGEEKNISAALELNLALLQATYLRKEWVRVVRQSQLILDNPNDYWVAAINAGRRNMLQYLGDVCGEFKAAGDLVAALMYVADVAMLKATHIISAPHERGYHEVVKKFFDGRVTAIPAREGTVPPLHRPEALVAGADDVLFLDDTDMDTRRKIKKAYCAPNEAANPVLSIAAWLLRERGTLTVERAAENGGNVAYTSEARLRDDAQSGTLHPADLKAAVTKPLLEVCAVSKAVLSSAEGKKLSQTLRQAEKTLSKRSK
Test: Trypanosoma cruzi tyrosyl tRNA synthetase (TcYRS) SOP
Format: functional
Parameters: scale not given: direction of the effect not stated beside the values
Conditions: 30 µM
Enter your answer as a number in %; do not include the unit.

Reference set (3 entries):
compound	Percent Effect [%]
CC(NC(=O)NCCCN(C)C)c1ccc2c(c1)CCC(=O)N2 (centres undefined)	21.9
CC(=O)c1ccc(N2CCC(CO)(CCOc3ccccc3)CC2)nc1	8.64
COCCC1COC2(CCN(C(=O)c3ccco3)CC2)C1 (centres undefined)	16.7

Next up:
Quote Percent Effect reported for `O=C(C1CCOCC1)N1CCc2ncnc(-c3ccc(F)cc3)c2CC1` please.
-2.5
